System: MALME-3M melanoma
Assay: NCI-60 one-dose screen, 48 h (100 = growth as untreated, 0 = no growth, -100 = all killed)
Details: 10 µM unless noted
This is part of a sample that, as a whole, favours compounds with a hit. Of some 83,000 tested, about 20% had one in any assay.
Classify as follows. Reported growth greater than or equal to 80%: 1. Reported growth below: -1.

{"Compound": "COc1ccc(C(=O)N2N=C(c3ccc(Br)cc3)CC2c2cn(-c3ccccc3)nc2-c2ccccc2)cc1 (stereo unspecified)", "Class": -1}
{"Compound": "CCCCCCCCCCCCCCCC[n+]1cccc(C#N)c1", "Class": 1}
{"Compound": "O=C(Nc1ccc(Cl)cn1)C1(c2ccccc2)CCCCC1", "Class": 1}
{"Compound": "NCCCOc1cc(Cl)ccc1NC(=O)c1cc2ccccc2cc1OCCCN", "Class": -1}
{"Compound": "O=C1c2ccccc2CCc2ccccc21", "Class": 1}
{"Compound": "CCCCCCCCc1ccc(OCCOCC[N+](C)(C)CC)cc1 (tested in a mixture with another compound)", "Class": -1}
{"Compound": "CCCCCCCCC(=O)Nc1ccc(O)cc1", "Class": 1}
{"Compound": "Clc1ccc(I)c2ccccc12", "Class": 1}
{"Compound": "N#Cc1c2cccnc2c2nnc3cc(Cl)c(Cl)cc3n12", "Class": -1}
{"Compound": "COc1cc(OC)c2c(=O)cc(-c3ccccc3)oc2c1", "Class": 1}
{"Compound": "CCOc1ccc(/C=N/NC(=O)c2cccc3ccccc23)cc1OCC", "Class": 1}
{"Compound": "O=C(N/N=C\\c1ccc(-c2ccc(Br)cc2)o1)c1cc2oc(-c3cccc(C(F)(F)F)c3)cc2[nH]1", "Class": 1}
{"Compound": "O=C1/C(=C/c2ccc(Cl)cc2)CCC/C1=C\\c1ccc(Cl)cc1", "Class": 1}
{"Compound": "CCCCCC(=C/c1ccccc1)/C=N/N=C(N)N", "Class": -1}
{"Compound": "CCCCCCCCCCCCCCCCNC(=O)Nc1ccc(C)c(NC(=O)NCCCCCCCCCCCCCCCC)c1", "Class": 1}
{"Compound": "COC(=O)C(N)CC(C)C (stereo unspecified)", "Class": 1}
{"Compound": "CCOC(=O)C(C)C(C)(O)c1ccccc1 (stereo unspecified)", "Class": 1}
{"Compound": "CC(=O)N1CCN(CCNC(=O)n2cc(-c3ccncc3)c(-c3ccc(O)c(Cl)c3)n2)CC1", "Class": 1}
{"Compound": "O=C(NCCO)C(F)(F)F", "Class": 1}
{"Compound": "CCCCCCNC(=O)Oc1ccc(/C(=C(/C)Cc2ccc(OC)cc2)c2ccc(OCCN3CCCCC3)cc2)cc1", "Class": 1}
{"Compound": "COc1cc(-c2nn(-c3ccc(NC(=O)c4cc(Cl)cc(Cl)c4)cc3)cc2-c2ccncc2)ccc1Cl", "Class": 1}
{"Compound": "COc1cc2ncnc(-n3ncc4cc(NC(=O)Nc5ccccc5)ccc43)c2cc1OC", "Class": -1}
{"Compound": "O=C(O)CS(=O)c1ccc(Cl)cc1 (stereo unspecified)", "Class": 1}
{"Compound": "COc1cc(OC)cc(-c2ccc(-c3ccc(C(=N)N)cc3)s2)c1", "Class": -1}
{"Compound": "O=C1C(=O)c2ccccc2C(O)=C1CCCc1ccc(Oc2ccccc2)cc1", "Class": -1}
{"Compound": "COc1cc2cn3c4ccc(O)cc4[nH]c(=O)c3c2cc1OC", "Class": -1}
{"Compound": "COc1cc2ncnc(-n3ncc4cc(NC(=O)Nc5ccc(Cl)c(C)c5)ccc43)c2cc1OC", "Class": 1}
{"Compound": "CC(=O)OC1/C=C\\CC/C=C\\C1 (stereo unspecified)", "Class": 1}
{"Compound": "CCCCCSc1ccc2nc(NC(=O)OCC)sc2c1", "Class": -1}
{"Compound": "Cc1nc2c(nnn2-c2ccccc2)c2nc(-c3ccc(Cl)cc3)oc(=O)c12", "Class": 1}

Source of measurements: PubChem BioAssay (NCI)
